Target: Vascular endothelial growth factor receptor 2 (Homo sapiens, UniProt P35968)
Sequence (P35968 whole entry): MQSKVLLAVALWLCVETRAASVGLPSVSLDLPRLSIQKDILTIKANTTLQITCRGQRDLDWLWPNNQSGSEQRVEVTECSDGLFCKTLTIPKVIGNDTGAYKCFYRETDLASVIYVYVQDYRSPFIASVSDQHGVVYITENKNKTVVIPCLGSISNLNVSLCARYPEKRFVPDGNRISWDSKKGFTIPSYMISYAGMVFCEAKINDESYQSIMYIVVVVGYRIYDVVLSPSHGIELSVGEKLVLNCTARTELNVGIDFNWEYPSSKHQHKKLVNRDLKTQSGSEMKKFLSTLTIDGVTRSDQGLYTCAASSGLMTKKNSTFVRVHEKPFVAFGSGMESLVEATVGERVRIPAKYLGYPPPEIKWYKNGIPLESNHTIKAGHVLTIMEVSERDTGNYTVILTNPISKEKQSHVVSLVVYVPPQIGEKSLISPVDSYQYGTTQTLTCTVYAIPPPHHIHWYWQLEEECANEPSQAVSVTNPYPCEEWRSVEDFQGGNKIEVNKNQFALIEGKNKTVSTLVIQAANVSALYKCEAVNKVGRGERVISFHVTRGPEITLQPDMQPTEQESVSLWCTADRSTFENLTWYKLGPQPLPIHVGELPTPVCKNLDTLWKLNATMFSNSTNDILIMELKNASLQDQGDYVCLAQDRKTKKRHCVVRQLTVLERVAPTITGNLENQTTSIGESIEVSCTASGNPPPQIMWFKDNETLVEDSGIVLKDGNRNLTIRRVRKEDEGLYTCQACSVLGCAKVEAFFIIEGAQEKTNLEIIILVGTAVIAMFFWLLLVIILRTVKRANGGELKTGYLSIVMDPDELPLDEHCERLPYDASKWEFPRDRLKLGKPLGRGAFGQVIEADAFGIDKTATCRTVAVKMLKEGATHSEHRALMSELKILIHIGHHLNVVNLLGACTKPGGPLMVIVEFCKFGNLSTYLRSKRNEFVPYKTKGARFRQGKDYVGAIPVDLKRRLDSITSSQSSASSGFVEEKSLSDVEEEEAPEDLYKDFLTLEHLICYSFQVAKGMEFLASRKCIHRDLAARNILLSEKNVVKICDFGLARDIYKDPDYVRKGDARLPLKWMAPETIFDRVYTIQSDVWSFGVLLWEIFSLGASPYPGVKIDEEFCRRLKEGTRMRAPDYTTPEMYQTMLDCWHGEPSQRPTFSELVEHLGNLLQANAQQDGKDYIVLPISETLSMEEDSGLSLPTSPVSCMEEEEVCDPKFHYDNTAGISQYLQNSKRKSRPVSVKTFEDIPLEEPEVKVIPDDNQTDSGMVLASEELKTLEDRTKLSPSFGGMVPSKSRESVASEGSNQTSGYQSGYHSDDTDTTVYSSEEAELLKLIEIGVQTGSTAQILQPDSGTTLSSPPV
pIC50: −log10 of the molar value.
Hi, to clarify the labels: true (1) covers pIC50 from 7 upward, false (0) covers anything below 7.

substanceSmiles	class
COc1cc(NC(=O)Nc2nccs2)cc(-c2cccnc2)c1OC	false (0)

Prompt: Does the compound O=C(Nc1ccccn1)Nc1cc(-c2cncnc2)ccc1OC(F)(F)F have recorded pIC50 that is 7 or more?
Completion: true (1)

----------
Target: Epidermal growth factor receptor (Homo sapiens)
Sequence (P00533 whole entry): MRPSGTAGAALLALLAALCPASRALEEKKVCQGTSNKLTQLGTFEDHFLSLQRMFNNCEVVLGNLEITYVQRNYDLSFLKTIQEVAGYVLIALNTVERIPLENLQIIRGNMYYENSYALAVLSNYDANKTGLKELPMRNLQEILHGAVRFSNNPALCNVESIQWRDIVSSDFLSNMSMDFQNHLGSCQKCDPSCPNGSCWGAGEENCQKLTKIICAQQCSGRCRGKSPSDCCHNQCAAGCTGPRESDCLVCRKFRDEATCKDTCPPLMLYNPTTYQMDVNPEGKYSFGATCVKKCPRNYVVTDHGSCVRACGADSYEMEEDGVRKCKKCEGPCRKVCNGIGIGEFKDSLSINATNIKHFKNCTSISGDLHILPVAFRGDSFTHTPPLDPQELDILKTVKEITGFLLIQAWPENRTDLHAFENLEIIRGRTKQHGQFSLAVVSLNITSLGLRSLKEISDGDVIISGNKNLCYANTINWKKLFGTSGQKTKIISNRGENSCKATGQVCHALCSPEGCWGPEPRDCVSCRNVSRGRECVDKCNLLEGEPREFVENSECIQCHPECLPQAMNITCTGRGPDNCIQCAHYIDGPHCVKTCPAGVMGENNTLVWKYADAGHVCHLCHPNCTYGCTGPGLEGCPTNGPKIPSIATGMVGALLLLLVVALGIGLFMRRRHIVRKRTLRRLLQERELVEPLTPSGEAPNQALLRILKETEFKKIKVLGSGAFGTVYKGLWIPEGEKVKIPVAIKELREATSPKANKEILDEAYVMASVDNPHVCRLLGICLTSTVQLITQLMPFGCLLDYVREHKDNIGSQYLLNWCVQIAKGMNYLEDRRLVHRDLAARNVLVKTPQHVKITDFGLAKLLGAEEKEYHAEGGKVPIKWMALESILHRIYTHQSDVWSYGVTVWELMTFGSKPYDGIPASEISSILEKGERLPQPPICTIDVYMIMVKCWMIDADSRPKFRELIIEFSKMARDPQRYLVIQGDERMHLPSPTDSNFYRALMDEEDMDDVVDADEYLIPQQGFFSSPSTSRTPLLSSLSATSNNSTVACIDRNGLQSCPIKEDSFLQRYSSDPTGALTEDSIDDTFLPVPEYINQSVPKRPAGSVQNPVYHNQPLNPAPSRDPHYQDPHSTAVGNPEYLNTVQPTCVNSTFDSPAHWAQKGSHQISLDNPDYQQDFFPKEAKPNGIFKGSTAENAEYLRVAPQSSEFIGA
pIC50: −log10 of the molar value.
If the reported pIC50 equals or exceeds 7, assign Condition met. If not, assign Condition not met.

substanceSmiles	class
O=C(Nc1ccccn1)Nc1cc(-c2cncnc2)ccc1OC(F)(F)F	Condition met

Prompt: Determine whether this molecule has pIC50 no lower than 7: O=C(Nc1ccncc1)Nc1cc(-c2cncnc2)cc(C(F)(F)F)c1
Completion: Condition met

Prompt: Does the molecule COc1ccc(-c2cc(NC(=O)Nc3ccncc3)cc(C(F)(F)F)c2)cn1 have recorded pIC50 that is 7 or more?
Completion: Condition not met

Prompt: Test whether the molecule COc1cc(NC(=O)Nc2nccs2)cc(-c2cccnc2)c1OC records pIC50 of 7 or higher.
Completion: Condition not met

Prompt: Does pIC50 meet or surpass 7 for COc1ccc(-c2cc(NC(=O)Nc3nccs3)cc(C(F)(F)F)c2)cn1 ?
Completion: Condition not met

Prompt: Answer whether pIC50 of COc1ccc(-c2ccc(OC(F)(F)F)c(NC(=O)Nc3ccccn3)c2)cn1 is greater than or equal to 7.
Completion: Condition not met

Prompt: Kindly determine if pIC50 recorded for COc1cc(NC(=O)Nc2ccccn2)cc(-c2cccnc2)c1OC is above or exactly 7.
Completion: Condition met

Prompt: Quick check: does Cn1cnc(-c2cc(NC(=O)Nc3nccs3)cc(C(F)(F)F)c2)c1 have pIC50 greater than or equal to 7?
Completion: Condition not met
